protocol_notes: Hepatic extraction ratio in human
Format: ADME
assay_context: read-out: ERH
Heads up, the class ranges for hepatic extraction ratio are label 0: < 0.5; label 1: ≥ 0.5 and < 0.6; label 2: ≥ 0.6

molecule	assigned_label
NC(=O)Cn1cc2nccc(Nc3ccnc(-c4cc(F)ccc4F)c3)c2n1	label 0
Cc1cnc(-c2cc(F)ccc2F)cc1Nc1ccnc2cnn(CC(C)O)c12 (stereo not drawn)	label 2
NC(=O)Cn1ncc2nccc(Nc3ccnc(-c4cc(F)ccc4F)c3)c21	label 1
Cc1ccc(F)c(-c2cc(Nc3ccnc4cn[nH]c34)c(C)cn2)n1	label 1
Cc1ccc(F)c(-c2cc(Nc3ccnc4cnn(C[C@@H](C)O)c34)c(C)cn2)n1	label 0
Cc1cnc(-c2cc(F)ccc2F)cc1Nc1ccnc2cn(CC(C)O)nc12 (stereo not drawn)	label 2
Cc1cnc(-c2cc(F)ccc2F)cc1Nc1ccnc2cn[nH]c12	label 2
Cc1cnc(-c2cc(Cl)ccc2F)cc1Nc1ccnc2cnn(CC(N)=O)c12	label 1
NC(=O)Cn1cc2nccc(Nc3ccnc(-c4cc(Cl)ccc4F)c3)c2n1	label 1
Fc1ccc(Cl)cc1-c1cc(Nc2ccnc3cn(CC4CCNCC4)nc23)ccn1	label 0
CCNC(=O)n1ncc2nccc(Nc3ccnc(-c4cc(F)ccc4F)c3)c21	label 1
Cc1cnc(-c2cc(Cl)ccc2F)cc1Nc1ccnc2cn[nH]c12	label 1

---

Each record here notes measured hepatic extraction ratio.
protocol_notes: Hepatic extraction ratio in human
Assay type: ADME
assay_context: read-out: ERH

structure_string	hepatic extraction ratio
CNC(=O)n1ncc2nccc(Nc3cc(-c4cc(F)ccc4F)ncc3C)c21	< 0.23
Cc1cnc(-c2cc(Cl)ccc2F)cc1Nc1ccnc2cn(CC(N)=O)nc12	0.46
CNC(=O)n1ncc2nccc(Nc3ccnc(-c4cc(Cl)ccc4F)c3)c21	0.57
Fc1ccc(Cl)cc1-c1cc(Nc2ccnc3cnn(CC4CCNCC4)c23)ccn1	0.91
CNC(=O)n1ncc2nccc(Nc3ccnc(-c4cc(F)ccc4F)c3)c21	0.55

---

protocol_notes: Clearance in human microsomes
Assay type: ADME, Microsome

structure_string	units	CLint scaled
COc1cccc2nccc(Nc3cc(-c4cc(Cl)ccc4F)ncc3C)c12	mL/min/kg	86

---

target_under_test: hERG (KCNH2) (Homo sapiens, UniProt Q12809)
Sequence (Q12809 whole entry): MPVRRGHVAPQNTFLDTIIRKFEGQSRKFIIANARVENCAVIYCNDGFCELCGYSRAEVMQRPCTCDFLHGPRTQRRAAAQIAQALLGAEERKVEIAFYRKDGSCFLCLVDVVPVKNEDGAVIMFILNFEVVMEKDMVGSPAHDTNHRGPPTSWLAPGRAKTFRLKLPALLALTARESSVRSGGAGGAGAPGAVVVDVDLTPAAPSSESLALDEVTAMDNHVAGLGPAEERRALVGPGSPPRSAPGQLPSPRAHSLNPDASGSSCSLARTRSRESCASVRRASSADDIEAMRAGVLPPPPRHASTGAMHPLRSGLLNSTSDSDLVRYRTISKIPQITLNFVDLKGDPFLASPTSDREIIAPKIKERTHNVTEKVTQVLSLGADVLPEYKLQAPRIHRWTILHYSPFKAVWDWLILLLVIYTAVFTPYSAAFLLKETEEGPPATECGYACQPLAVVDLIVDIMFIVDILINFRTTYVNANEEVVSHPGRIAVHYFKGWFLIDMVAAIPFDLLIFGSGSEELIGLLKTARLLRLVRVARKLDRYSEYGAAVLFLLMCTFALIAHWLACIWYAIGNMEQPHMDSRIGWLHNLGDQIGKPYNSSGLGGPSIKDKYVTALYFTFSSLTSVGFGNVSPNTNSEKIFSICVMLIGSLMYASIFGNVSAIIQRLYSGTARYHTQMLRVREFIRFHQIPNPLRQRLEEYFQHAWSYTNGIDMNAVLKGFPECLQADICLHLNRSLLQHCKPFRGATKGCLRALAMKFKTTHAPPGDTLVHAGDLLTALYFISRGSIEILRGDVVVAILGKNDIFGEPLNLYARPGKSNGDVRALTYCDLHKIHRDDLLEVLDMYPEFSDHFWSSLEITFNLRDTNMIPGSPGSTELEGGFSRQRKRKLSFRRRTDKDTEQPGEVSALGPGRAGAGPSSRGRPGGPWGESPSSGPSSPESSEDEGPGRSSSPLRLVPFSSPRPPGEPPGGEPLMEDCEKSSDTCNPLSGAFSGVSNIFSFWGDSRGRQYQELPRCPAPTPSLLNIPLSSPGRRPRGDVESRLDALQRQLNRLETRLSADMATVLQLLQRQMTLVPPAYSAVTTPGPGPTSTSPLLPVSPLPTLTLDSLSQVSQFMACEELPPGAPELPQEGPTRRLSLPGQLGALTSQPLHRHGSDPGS
protocol_notes: Inhibition of human ERG expressed in CHOK1 cells at 10 uM by automated whole cell patch clamp Qpatch method relative to control
Format: cell-based
assay_context: CHO-K1 cells expressing human ERG
Each record here notes measured inhibition at 10 µM.
endpoint_label: inhibition at 10 µM (%)

structure_string	units	numeric_readout
Cc1ccc(F)c(-c2cc(Nc3ccnc4cnn(C[C@@H](C)O)c34)c(C)cn2)n1	%	42
COc1cccc2nccc(Nc3cc(-c4cc(Cl)ccc4F)ncc3C)c12	%	94

---

target_under_test: TGF-beta receptor type-1 (Homo sapiens)
Sequence (P36897 whole entry): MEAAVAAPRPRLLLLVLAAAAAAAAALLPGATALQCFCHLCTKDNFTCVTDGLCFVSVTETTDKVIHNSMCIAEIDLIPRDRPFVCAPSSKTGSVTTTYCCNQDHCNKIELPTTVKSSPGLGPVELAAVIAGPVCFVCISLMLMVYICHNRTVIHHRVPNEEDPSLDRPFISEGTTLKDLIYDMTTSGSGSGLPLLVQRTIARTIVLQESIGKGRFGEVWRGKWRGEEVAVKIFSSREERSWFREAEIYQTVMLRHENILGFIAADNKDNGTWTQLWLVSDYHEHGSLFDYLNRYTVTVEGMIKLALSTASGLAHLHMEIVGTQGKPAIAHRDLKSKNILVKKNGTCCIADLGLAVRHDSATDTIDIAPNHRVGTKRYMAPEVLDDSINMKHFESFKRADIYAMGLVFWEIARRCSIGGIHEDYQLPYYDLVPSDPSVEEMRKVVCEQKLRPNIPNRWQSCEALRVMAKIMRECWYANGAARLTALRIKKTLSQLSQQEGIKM
protocol_notes: Inhibition of ALK5 (unknown origin) expressed in SBE-bla HEK293T cells assessed as decrease in TGFbeta1-induced Smad2/3 phosphorylation by beta lactamase reporter gene assay
Format: cell-based
pEC50: −log10 of the molar value.
endpoint_label: pEC50

structure_string	numeric_readout
CNC(=O)n1ncc2nccc(Nc3cc(-c4cc(Cl)ccc4F)ncc3C)c21	7.50
NC(=O)Cn1cc2nccc(Nc3ccnc(-c4cc(F)ccc4F)c3)c2n1	6.60
Fc1ccc(Cl)cc1-c1cc(Nc2ccnc3cn(CC4CCNCC4)nc23)ccn1	6.00
Fc1ccc(Cl)cc1-c1cc(Nc2ccnc3cn[nH]c23)ccn1	7.30
NC(=O)Cn1cc2nccc(Nc3ccnc(-c4cc(Cl)ccc4F)c3)c2n1	7.00

---

protocol_notes: Hepatic extraction ratio in rat
Type: ADME
assay_context: read-out: ERH
Heads up, the class ranges for hepatic extraction ratio are interval 1 = under 0.3, interval 2 = from 0.3 up to 0.6, interval 3 = 0.6 and over

compound	assigned_label
Fc1ccc(Cl)cc1-c1cc(Nc2ccnc3cnn(CC4CCNCC4)c23)ccn1	interval 3
NC(=O)Cn1cc2nccc(Nc3ccnc(-c4cc(F)ccc4F)c3)c2n1	interval 2
CNC(=O)n1ncc2nccc(Nc3cc(-c4cc(Cl)ccc4F)ncc3C)c21	interval 2
Cc1cnc(-c2cc(F)ccc2F)cc1Nc1ccnc2cn(CC(C)O)nc12 (stereo not drawn)	interval 3
Cc1ccc(F)c(-c2cc(Nc3ccnc4cn[nH]c34)c(C)cn2)n1	interval 3
NC(=O)Cn1ncc2nccc(Nc3ccnc(-c4cc(F)ccc4F)c3)c21	interval 2
CNC(=O)n1ncc2nccc(Nc3ccnc(-c4cc(F)ccc4F)c3)c21	interval 1
CCNC(=O)n1ncc2nccc(Nc3ccnc(-c4cc(F)ccc4F)c3)c21	interval 1
Cc1cnc(-c2cc(F)ccc2F)cc1Nc1ccnc2cnn(CC(C)O)c12 (stereo not drawn)	interval 2
Fc1ccc(Cl)cc1-c1cc(Nc2ccnc3cn(CC4CCNCC4)nc23)ccn1	interval 1
Cc1cnc(-c2cc(Cl)ccc2F)cc1Nc1ccnc2cnn(CC(N)=O)c12	interval 2
Cc1cnc(-c2cc(Cl)ccc2F)cc1Nc1ccnc2cn[nH]c12	interval 3
CNC(=O)n1ncc2nccc(Nc3cc(-c4cc(F)ccc4F)ncc3C)c21	interval 1
CNC(=O)n1ncc2nccc(Nc3ccnc(-c4cc(Cl)ccc4F)c3)c21	interval 2
NC(=O)Cn1cc2nccc(Nc3ccnc(-c4cc(Cl)ccc4F)c3)c2n1	interval 2
Cc1cnc(-c2cc(Cl)ccc2F)cc1Nc1ccnc2cn(CC(N)=O)nc12	interval 2
Cc1cnc(-c2cc(F)ccc2F)cc1Nc1ccnc2cn[nH]c12	interval 3

---

protocol_notes: Clearance in rat microsomes
Format: ADME, Microsome

structure_string	CLint scaled
COc1cccc2nccc(Nc3cc(-c4cc(Cl)ccc4F)ncc3C)c12	302 mL/min/kg

---

protocol_notes: Oral bioavailability in rat
Type: ADME, organism-based
assay_context: in vivo
Each record here notes measured bioavailability.

structure_string	bioavailability
Cc1ccc(F)c(-c2cc(Nc3ccnc4cnn(C[C@@H](C)O)c34)c(C)cn2)n1	38%
Cc1cnc(-c2cc(Cl)ccc2F)cc1Nc1ccnc2cnn(CC(N)=O)c12	71%

---

Each record here notes measured EC50.
target_under_test: TGF-beta receptor type-1 (Homo sapiens)
Sequence (P36897 whole entry): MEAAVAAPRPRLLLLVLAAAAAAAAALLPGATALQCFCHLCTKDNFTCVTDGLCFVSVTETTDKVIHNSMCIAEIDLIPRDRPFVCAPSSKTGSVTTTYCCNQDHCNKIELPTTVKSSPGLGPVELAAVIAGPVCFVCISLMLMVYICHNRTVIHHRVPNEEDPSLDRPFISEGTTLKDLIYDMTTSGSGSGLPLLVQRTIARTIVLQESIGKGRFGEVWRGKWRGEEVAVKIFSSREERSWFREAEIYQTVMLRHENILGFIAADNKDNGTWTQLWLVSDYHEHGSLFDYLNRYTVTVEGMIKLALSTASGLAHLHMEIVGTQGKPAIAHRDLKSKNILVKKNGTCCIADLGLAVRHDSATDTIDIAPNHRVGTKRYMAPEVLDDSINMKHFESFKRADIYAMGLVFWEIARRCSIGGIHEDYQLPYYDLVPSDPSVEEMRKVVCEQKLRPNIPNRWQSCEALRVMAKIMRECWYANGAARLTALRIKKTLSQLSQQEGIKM
protocol_notes: Inhibition of ALK5 (unknown origin) expressed in SBE-bla HEK293T cells assessed as decrease in TGFbeta1-induced Smad2/3 phosphorylation by beta lactamase reporter gene assay
Type: cell-based

compound	EC50 [nM]
Cc1cccc(-c2cc(Nc3ccnc4cn[nH]c34)c(C)cn2)n1	31.6
CNC(=O)n1ncc2nccc(Nc3cc(-c4cc(F)ccc4F)ncc3C)c21	25.1
Cc1ccc(F)c(-c2cc(Nc3ccnc4cnn(C[C@@H](C)O)c34)c(C)cn2)n1	100
Cc1cnc(-c2cc(Cl)ccc2F)cc1Nc1ccnc2cn(CC(N)=O)nc12	12.6
Cc1cnc(-c2cc(F)ccc2F)cc1Nc1ccnc2cnn(CC(C)O)c12 (stereo not given)	7.94
Cc1cnc(-c2cc(F)ccc2F)cc1Nc1ccnc2cn[nH]c12	7.94
CCNC(=O)n1ncc2nccc(Nc3ccnc(-c4cc(F)ccc4F)c3)c21	31.6
Cc1cnc(-c2cc(F)ccc2F)cc1Nc1ccnc2cn(CC(C)O)nc12 (stereo not given)	126
CCn1cc2nccc(Nc3cc(-c4cc(C)ccc4F)ncc3C)c2n1	15.8
CNC(=O)n1ncc2nccc(Nc3ccnc(-c4cc(Cl)ccc4F)c3)c21	25.1

Entry source: ChEMBL document CHEMBL4011610
